# Test system: HCC 2998
# PROTOCOL_DESCRIPTION: NCI tumour cell line growth inhibition, 48 h
Active and inactive are the calls of the source. Rule as the data show it: active = GI50 up to about 1.1 µM and inactive = higher.
Write down the outcome that applies. Available outcomes: yes = active, no = inactive

{"columns": ["MOLECULE", "TARGET_SYSTEM", "GROUP"],
 "data": [
  ["Cc1ccc(S(=O)(=O)N/N=C(/CC(=O)c2c(C)[n+]([O-])c3ccccc3[n+]2[O-])C(=O)Nc2ccc(C)c(C)c2)cc1", "HCC 2998", "no"],
  ["O=C1C=C/C(=N/c2ccccc2)c2ccccc21", "HCC 2998", "no"],
  ["CC1(C)OC(=O)C(c2cccs2)C(=O)O1", "HCC 2998", "no"],
  ["Clc1cccc(N2CCN(CCN3CCc4c([nH]c5ccccc45)C3c3cccnc3)CC2)c1 (stereo not given)", "HCC 2998", "no"],
  ["CC1(c2cccc(C3CC4(CCC3=O)OCCCCO4)c2)OCCO1 (stereo not given)", "HCC 2998", "no"]
]}

QUERY: For CN(C)CCCOc1ccc(/C=C2/CCC/C(=C/c3ccc(OCCCN(C)C)cc3)C2=O)cc1 , which call appears in the assay record?
RESULT: no

QUERY: What classification did CC(=O)Oc1ccc(OC(Oc2ccccc2)c2ccccc2)cc1 (stereo not given) end up with in this test?
RESULT: no

QUERY: Recorded call for O=C(O)[C@@H]1CCS(=O)(=O)N1 ?
RESULT: no

QUERY: What is the recorded call for this molecule in the test? COC(=O)c1nn(C(=N)c2ccc(Cl)cc2)c2c1CCC2
RESULT: no

QUERY: Test call for this molecule, please: O=C1C=C2S[C@H]3C[C@]2(C=C1Br)C1=C(N3)C(=O)c2[nH]cc3c2C1=NCC3 [(+)-DISCORHABDIN B]
RESULT: no
